System: human chronic myeloid leukaemia cells (K562)
Assay method text: MTT antiproliferative assay, K562
Format: cell-based
Condition description: K562, Table 2, unit inferred, repeats Table 1, read-out: K562 (IC50, Table 2)
Readout name: pIC50
One number for each entry, as −log10 of the molar value.

• Nn1c(SCC(=O)Nc2cc(-c3c[nH]c4ccccc34)n[nH]2)nnc1-c1cccnc1 [Compound 11h] = 7.19

Shift focus to the following entry.
[ask] I have this compound here, COc1cc(-c2nnc(SCC(=O)Nc3cc(-c4c[nH]c5ccccc45)n[nH]3)s2)cc(OC)c1OC [Compound 10b] , and I need its recorded pIC50.
[reply] 7.88
